Attribution: PubChem BioAssay (NCI)

Tested on: EKVX NSCLC
test summary: NCI-60 one-dose screen, 48 h (100 = growth as untreated, 0 = no growth, -100 = all killed)
run conditions: 10 µM unless noted
The panel holds about 83,000 compounds, 20% with a hit somewhere; the sample as a whole holds those more often.
Strictly below 40% in growth: rule met. Otherwise: rule not met.

Examples with answers:
compound	discrete label
O=c1oc2ccc(F)cc2c(=O)n1-c1ccc(Br)cc1F	rule met
CCN1C(=O)N(CC)C2C1NN=c1s/c(=C3\C(=O)N(C(C)C)c4ccccc43)c(=O)n12 (centres undefined)	rule met
COc1ccccc1C1=C(Br)C(=O)c2nc(C)ccc2C1=O	rule not met
O=c1oc2ccc(Cl)cc2c(=O)n1-c1ccc(F)cc1F	rule met
COc1cc(/C=C2\CN(S(=O)(=O)c3ccccc3)C/C(=C\c3cc(CN4CCCC4)c(O)c(OC)c3)C2=O)cc(CN2CCCC2)c1O	rule met

Query: Take the compound Nc1nc(N)c2c(n1)NC1(C=C(O)c3ccccc31)C1=C(N2)c2ccccc2C1=O (centres undefined) and say whether its growth is less than 40%.
Reply: rule not met

Query: Please indicate whether the reported growth of "COc1cc(/C=C2\Oc3cc(OCCCN4CCCC4)ccc3C2=O)cc(OC)c1" is strictly below 40%.
Reply: rule not met

Query: Is 40% strictly greater than the compound's reported growth? compound: "CN1CCN(Cc2ccc(C(=O)Nc3cncc(C#Cc4cnc(N)c5ccccc45)c3)cc2C(F)(F)F)CC1"
Reply: rule met

Query: Strictly below 40%: is that where growth of "O=C(/C=C/c1ccccc1)c1ccc(Nc2nc(NCCO)nc(Nc3ccc(Cl)cc3)n2)cc1" sits?
Reply: rule not met
